System: Immunoglobulin E (IgE) (Homo sapiens), P01854-1
Sequence (P01854 other isoform, or with tags, fused parts or gaps): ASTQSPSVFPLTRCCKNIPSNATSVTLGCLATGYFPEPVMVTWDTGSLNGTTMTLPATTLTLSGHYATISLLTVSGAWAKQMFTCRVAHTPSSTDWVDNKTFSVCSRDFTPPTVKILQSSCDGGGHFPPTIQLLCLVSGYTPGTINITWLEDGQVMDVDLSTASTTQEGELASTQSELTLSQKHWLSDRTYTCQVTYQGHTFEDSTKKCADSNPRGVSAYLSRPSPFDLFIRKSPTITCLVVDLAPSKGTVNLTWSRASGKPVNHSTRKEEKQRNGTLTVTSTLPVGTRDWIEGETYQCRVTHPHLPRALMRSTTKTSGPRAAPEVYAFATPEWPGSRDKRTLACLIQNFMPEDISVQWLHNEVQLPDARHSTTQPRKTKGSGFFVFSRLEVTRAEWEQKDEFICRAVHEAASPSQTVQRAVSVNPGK
assay_method_text: inhibition
assay_context: 2'-OMe/2'-deoxy mix, dI20, PS; 3' idT [dI at 20 (written as parent G); PS after 8,15,16,18,20; 2'-OMe/2'-deoxy mix; 3' idT left out]; FACS, 2.5 nM IgE
value_kind: IC50

Ask: So what does the record say about IC50 for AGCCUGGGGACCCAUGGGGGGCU [ARC1641] ?
Result: 1.8 nM

###

Test system: Immunoglobulin E (IgE) (Homo sapiens), P01854-1
assay_method_text: filter
assay_context: ARC1666 chemistry with 2'-OMe G8,G9; 3' idT; DPBS Mg/Ca, BSA, RT
value_kind: Kd (nM)
Unit nM implied. Number only.

Ask: Provide value of Kd for this record tested with Immunoglobulin E (IgE) (Homo sapiens), P01854-1: AGCCUGGGNGACCCAUNNNGNNGNNGCUN [ARC3265]
Result: 0.29

###

System: Immunoglobulin E (IgE) (Homo sapiens), P01854-1
assay_method_text: filter
assay_context: 2'-OMe/2'-deoxy mix, dI16,dI20, PS; 3' idT [16=dI, 20=dI (G parent); 24=3' inverted dT; phosphorothioate linkage N's left out (5^6, 7^8, 8^9, 15^16, 17^18, 18^19, 19^20, 20^21)]; DPBS Mg/Ca, 0.1 mg/mL BSA, RT
value_kind: Kd (nM)
Only the number, expressed in nM, is required.

Ask: Kd for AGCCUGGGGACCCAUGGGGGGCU [ARC1644] ?
Result: 1.7

###

Tested on: Immunoglobulin E (IgE) (Homo sapiens), P01854-1
assay_method_text: filter
assay_context: ARC1666 pattern with 2'-OMe G8; 3' idT [dI (written G) at 16,18,20; 2'-OMe 1-5,7,8,10-15,17,22,23; deoxy 6,9,16,18-21; PS 8/9,15/16,16/17,18/19,20/21; 3' inverted dT left out]; dPBS Ca/Mg + BSA, RT
value_kind: pKd
Note on units: pKd is unitless, being -log10 of a concentration expressed in mol/L.

Ask: Which measured pKd value corresponds to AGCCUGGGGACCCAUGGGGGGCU [ARC3262] ?
Result: 9.80

###

Test system: Immunoglobulin E (IgE) (Homo sapiens), P01854-1
assay_method_text: filter
assay_context: DNA with 2'-OMe G1-G4,A7,G33-C37; PS between T27 and G28; 3' idT [2'-OMe G1-G4, A7, G33-C37; PS 27/28 (printed N = PS linkage, left out); 3' inverted dT at 38]; dPBS Ca/Mg + BSA
value_kind: Kd

Ask: API: value(readout= Kd, system= Immunoglobulin E (IgE) (Homo sapiens), P01854-1, query= GGGGCTACTTTATCCGTTCCTCCTAGTGGGTAGCCCCT [ARC1410] )
Result: 0.7 nM

###

Tested on: Immunoglobulin E (IgE) (Homo sapiens), P01854-1
assay_method_text: filter
assay_context: ARC1666 chemistry + PS 12-13; 3' idT; DPBS Mg/Ca, BSA, RT
value_kind: Kd (nM)
Numeric only. Scale: nM

Ask: Would you mind telling me what Kd value was observed for AGCCUGGGNGACCNCAUNNNGNNGNNGCUN [ARC2979] ?
Result: 0.05

###

Each item that follows carries a reported pIC50.
assayed_target: Immunoglobulin E (IgE) (Macaca fascicularis) (UniProt A0A7N9DC98)
Sequence: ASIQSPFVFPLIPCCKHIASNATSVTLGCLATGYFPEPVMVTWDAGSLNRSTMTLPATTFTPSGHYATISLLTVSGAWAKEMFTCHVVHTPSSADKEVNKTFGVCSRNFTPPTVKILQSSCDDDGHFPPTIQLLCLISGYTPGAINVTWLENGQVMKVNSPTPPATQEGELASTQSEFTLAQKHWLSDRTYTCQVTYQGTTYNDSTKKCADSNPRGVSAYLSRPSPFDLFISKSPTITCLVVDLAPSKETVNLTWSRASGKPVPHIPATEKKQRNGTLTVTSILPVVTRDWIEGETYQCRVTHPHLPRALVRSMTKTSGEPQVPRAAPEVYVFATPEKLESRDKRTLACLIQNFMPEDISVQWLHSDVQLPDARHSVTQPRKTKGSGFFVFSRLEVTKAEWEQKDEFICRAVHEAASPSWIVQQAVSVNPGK
assay_method_text: inhibition
assay_context: 3' idT; no inhibition of monkey IgE:FceR1a-Fc up to 250 nM
pIC50: −log10 of the molar value.

1. GGGGCTACTTTATCCGTCCCTCCTAGTGGGTAGCCCC [ARC475 with 3' idT] = < 6.60

With those in mind, consider the next sequence.
Ask: I'd like to know its pIC50. The sequence in question is GGCGGCAGCTTTATCCGTACCTCCCAGTGGGCTGCTCC [DNA clone SEQ 149 with 3' idT]
Result: < 6.60

###

System: Immunoglobulin E (IgE) (Homo sapiens), P01854-1
assay_method_text: filter
assay_context: 2'-F C and U; biphasic, KD2 17.4 nM; 1xSHMCK + tRNA, RT
value_kind: pKd
To interpret pKd, take it as minus log10 of a concentration measured in moles per litre.

Ask: Kindly state the measured pKd obtained for GGGAAAAGCGAAUCAUACACAAGAGUGCCGAGGCAUUGCUUGGUAUGGUUCCGGUCUUGUCGGGGCUCCGCCAGAGACCAACCGAGAA [rRfY clone SEQ 19] with Immunoglobulin E (IgE) (Homo sapiens), P01854-1.
Result: 10.02

###

Tested on: Immunoglobulin E (IgE) (Homo sapiens), P01854-1
assay_method_text: filter
assay_context: 2'-OMe U at 18; 3' idT; DPBS Mg/Ca, BSA
value_kind: Kd (nM)
Numbers only; they are read as nM.

Ask: Param item = GGGGCTACTTTATCCGTUCCTCCTAGTGGGTAGCCCCN [ARC1282] ; retrieve measured Kd.
Result: 0.2

###

Tested on: Immunoglobulin E (IgE) (Homo sapiens), P01854-1
assay_method_text: inhibition
assay_context: 2'-OMe/2'-deoxy mix, PS; 3' idT [PS after 1,9,15,16,18,20; 2'-OMe/2'-deoxy mix; 3' idT left out]; FACS, 2.5 nM IgE
value_kind: IC50

Ask: Recorded IC50 of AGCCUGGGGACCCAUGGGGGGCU [ARC1337] , please.
Result: 4.7 nM

###

Test system: Immunoglobulin E (IgE) (Homo sapiens), P01854-1
assay_method_text: filter
assay_context: 2'-OMe at 16; 3' idT; DPBS Mg/Ca, BSA
value_kind: Kd (nM)
Please give a number only; it is taken to be in nM.

Ask: What Kd appears in the records for this sequence with Immunoglobulin E (IgE) (Homo sapiens), P01854-1? GGGGCTACTTTATCCGTTCCTCCTAGTGGGTAGCCCCN [ARC1280]
Result: 0.6

###

Test system: Immunoglobulin E (IgE) (Homo sapiens), P01854-1
assay_method_text: filter
assay_context: ARC1666 pattern plus PS between G21 and C22; 3' idT; dPBS Ca/Mg + BSA, RT
value_kind: Kd
Answer format reminder: number followed by unit.

Ask: Please tell me: Kd of AGCCUGGGNGACCCAUNNNGNNGNNGNCUN [ARC2340] , system Immunoglobulin E (IgE) (Homo sapiens), P01854-1?
Result: 0.08 nM

###

System: Immunoglobulin E (IgE) (Homo sapiens), P01854-1
assay_method_text: filter
assay_context: ARC1335 chemistry with dI18; 3' idT [18=dI (G parent); 24=3' inverted dT]; DPBS Mg/Ca, 0.1 mg/mL BSA, RT
value_kind: Kd (nM)
Reply numerically in nM, unit not repeated.

Ask: Please give the measured Kd for this sequence: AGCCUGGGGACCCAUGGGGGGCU [ARC1564]
Result: 0.5

###

System: Immunoglobulin E (IgE) (Homo sapiens), P01854-1
assay_method_text: filter
assay_context: 2'-OMe at 1-4,7,33-37; PS 14-15; 3' idT [2'-OMe at 1-4,7,33-37; PS linkage 14-15 (internal N = PS, not a base); 3' inverted dT cap (terminal N, left out)]; DPBS Mg/Ca, BSA
value_kind: pKd
Answer as the number alone; pKd is minus log10 of concentration in mol/L.

Ask: Which measured pKd value corresponds to GGGGCTACTTTATCCGTTCCTCCTAGTGGGTAGCCCC [ARC1397] ?
Result: 8.74

###

Tested on: Immunoglobulin E (IgE) (Homo sapiens), P01854-1
assay_method_text: filter
assay_context: 2'-OMe/2'-deoxy mix, dI16,dI18,dI20, PS as printed; 3' idT [16=dI, 18=dI, 20=dI (G parent); 24=3' inverted dT; 2'-OMe at 1-5,7,10-15,17,22,23; phosphorothioate linkage N's left out (5^6, 7^8, 8^9, 15^16, 17^18, 18^19, 19^20, 20^21)]; DPBS Mg/Ca, 0.1 mg/mL BSA, RT
value_kind: pKd
Kindly note that pKd refers to -log10 of the concentration in mol/L and answer with the value alone.

Ask: GET /values?readout=pKd&system=Immunoglobulin E (IgE) (Homo sapiens), P01854-1&item= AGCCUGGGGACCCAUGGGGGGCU [ARC1729]
Result: 9.00

The reported measurements were obtained from patent US20090018093.
